Tested on: Vero
assay text: Cytotoxicity against Chlorocebus aethiops (African green monkey) Vero cells after 72 hr by XTT assay
Assay type: cell-based
condition info: chlorocebus sabaeus, vero, 72 h
readout name: CC25 (µM)
Respond numerically; units are µM and should not be typed.

Ask: For the molecule COc1cccc(C2NC(=O)NC(C)=C2C(=O)Nc2ccccc2Cl)c1 (stereo unspecified) , give its reported CC25.
Result: 45.6

Ask: Dear colleague, please send me the reported CC25 for COC(=O)C1=C(C)NC(=S)NC1c1ccc(Br)cc1 (stereo unspecified) when you can.
Result: 69.1

Ask: Report measured CC25; entry is CC1=C(C(=O)Nc2ccccc2Cl)C(c2ccccc2Cl)NC(=S)N1 (stereo unspecified)
Result: 24.5

Ask: Report CC25 for COc1ccc(C2NC(=O)NC(C)=C2C(=O)Nc2ccccc2Cl)cc1 (stereo unspecified)
Result: 17.6

Ask: For CC1=C(C(=O)Nc2ccccc2Cl)C(c2cnc(CS)n2Nc2ccccc2)NC(=O)N1 (stereo unspecified) , write its CC25.
Result: 97.7

Ask: Indicate its recorded CC25; the molecule in question is CC1=C(C(=O)Nc2cccc(Cl)c2)C(c2cccs2)NC(=O)N1 (stereo unspecified)
Result: 87.9
